- method: Metabolic stability in mouse liver microsomes assessed as compound metabolized at 10 uM after 30 mins by LC-MS analysis
- Format: ADME, Microsome
- condition.description: read-out: Activity

[
  {
    "compound": "CC[C@H](Nc1nc(NCc2ccccc2)c2ncn(C(C)C)c2n1)C(O)C(C)(C)C (mixture of isomers)",
    "metabolised at 0.5 h, 10 µM, %": 74
  },
  {
    "compound": "CC[C@@H](Nc1nc(NCc2ccccc2)c2ncn(C(C)C)c2n1)C(C)(C)O",
    "metabolised at 0.5 h, 10 µM, %": 52
  },
  {
    "compound": "CC[C@H](Nc1nc(NCc2cccnc2)c2ncn(C(C)C)c2n1)C(O)C(C)C (mixture of isomers)",
    "metabolised at 0.5 h, 10 µM, %": 62
  },
  {
    "compound": "CC[C@@H](Nc1nc(NCc2ccccn2)c2ncn(C(C)C)c2n1)C(O)C(C)(C)C (mixture of isomers)",
    "metabolised at 0.5 h, 10 µM, %": 93
  },
  {
    "compound": "CCC(O)[C@@H](CC)Nc1nc(NCc2ccccn2)c2ncn(C(C)C)c2n1 (mixture of isomers)",
    "metabolised at 0.5 h, 10 µM, %": 88
  },
  {
    "compound": "CC[C@H](Nc1nc(NCc2ccccc2)c2ncn(C(C)C)c2n1)C(C)(C)O",
    "metabolised at 0.5 h, 10 µM, %": 73
  },
  {
    "compound": "CCC(O)[C@H](CC)Nc1nc(NCc2ccccn2)c2ncn(C(C)C)c2n1 (mixture of isomers)",
    "metabolised at 0.5 h, 10 µM, %": 85
  },
  {
    "compound": "CC[C@@H](Nc1nc(NCc2ccccn2)c2ncn(C(C)C)c2n1)C(O)C(C)C (mixture of isomers)",
    "metabolised at 0.5 h, 10 µM, %": 94
  },
  {
    "compound": "CC[C@H](Nc1nc(NCc2ccccn2)c2ncn(C(C)C)c2n1)C(O)C(C)C (mixture of isomers)",
    "metabolised at 0.5 h, 10 µM, %": 23
  },
  {
    "compound": "CCC(O)[C@@H](CC)Nc1nc(NCc2ccccc2)c2ncn(C(C)C)c2n1 (mixture of isomers)",
    "metabolised at 0.5 h, 10 µM, %": 63
  },
  {
    "compound": "CC[C@H](CO)Nc1nc(NCc2cccnc2)c2ncn(C(C)C)c2n1",
    "metabolised at 0.5 h, 10 µM, %": 54
  },
  {
    "compound": "CC[C@H](CO)Nc1nc(NCc2ccncc2)c2ncn(C(C)C)c2n1",
    "metabolised at 0.5 h, 10 µM, %": 3
  },
  {
    "compound": "CCC(O)[C@H](CC)Nc1nc(NCc2cccnc2)c2ncn(C(C)C)c2n1 (mixture of isomers)",
    "metabolised at 0.5 h, 10 µM, %": 27
  }
]

----------
- system.tested: Mitogen-activated protein kinase 1 (Homo sapiens)
- Sequence (P28482 whole entry): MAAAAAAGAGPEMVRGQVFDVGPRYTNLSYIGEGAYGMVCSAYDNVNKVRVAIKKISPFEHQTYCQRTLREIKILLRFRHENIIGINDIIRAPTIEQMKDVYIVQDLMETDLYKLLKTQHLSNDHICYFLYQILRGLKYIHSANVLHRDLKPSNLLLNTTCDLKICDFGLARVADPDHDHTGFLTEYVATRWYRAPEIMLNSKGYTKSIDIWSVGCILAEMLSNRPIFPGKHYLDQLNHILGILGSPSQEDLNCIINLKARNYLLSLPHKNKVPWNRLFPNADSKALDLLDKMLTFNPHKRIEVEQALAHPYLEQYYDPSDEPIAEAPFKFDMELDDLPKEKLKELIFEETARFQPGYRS
- method: Inhibition of ERK2
Reported IC50 values are given for each entry in this list.

[
  {
    "compound": "CC[C@H](Nc1nc(NCc2ccccc2)c2ncn(C(C)C)c2n1)C(O)C(C)(C)C (mixture of isomers)",
    "IC50": "> 200 µM"
  },
  {
    "compound": "CC[C@H](Nc1nc(NCc2ccccn2)c2ncn(C(C)C)c2n1)C(C)(C)O",
    "IC50": "> 200 µM"
  },
  {
    "compound": "CC[C@H](CO)Nc1nc(NCc2cccnc2)c2ncn(C(C)C)c2n1",
    "IC50": "24 µM"
  },
  {
    "compound": "CC[C@@H](Nc1nc(NCc2ccccc2)c2ncn(C(C)C)c2n1)C(O)C(C)(C)C (mixture of isomers)",
    "IC50": "> 200 µM"
  },
  {
    "compound": "CC[C@@H](Nc1nc(NCc2ccccc2)c2ncn(C(C)C)c2n1)C(O)C(C)C (mixture of isomers)",
    "IC50": "> 200 µM"
  }
]

The measurements presented in this section are drawn from ChEMBL document CHEMBL1921760.
